Just for reference, patent US20230104283A1 is where these values come from.

# pIC50 annotations
target: JNK1 kinase (Homo sapiens, UniProt P45983)
Sequence (P45983 whole entry): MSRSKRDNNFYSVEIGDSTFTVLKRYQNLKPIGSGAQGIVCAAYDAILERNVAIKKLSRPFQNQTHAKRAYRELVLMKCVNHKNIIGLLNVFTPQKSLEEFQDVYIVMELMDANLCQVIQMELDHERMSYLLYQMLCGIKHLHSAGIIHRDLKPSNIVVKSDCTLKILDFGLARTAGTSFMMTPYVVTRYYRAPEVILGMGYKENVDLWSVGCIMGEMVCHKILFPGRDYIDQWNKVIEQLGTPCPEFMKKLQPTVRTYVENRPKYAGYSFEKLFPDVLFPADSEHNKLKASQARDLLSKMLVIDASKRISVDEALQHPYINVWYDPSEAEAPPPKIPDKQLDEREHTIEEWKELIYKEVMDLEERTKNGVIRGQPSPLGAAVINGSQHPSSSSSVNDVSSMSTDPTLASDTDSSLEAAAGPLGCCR
pIC50: −log10 of the molar value.

Check out these entries, answers already filled in.
Ask | Please look up its pIC50: C=Cc1cnc(NC(C)(C)C)nc1N[C@@H]1CC[C@@H](C)[C@H](O)C1
Reply | < 6.00

Ask | Name the recorded pIC50 for COc1ccc(CNc2ncc(C(N)=O)c(N[C@@H]3CC[C@@H](C)[C@H](O)C3)n2)cc1 .
Reply | > 7.00

Ask | I have this compound here, COc1cnc(NC(C)(C)C)nc1N[C@@H]1CC[C@@H](C)[C@H](O)C1 , and I need its recorded pIC50.
Reply | < 6.00

Ask | Can you look up the measured pIC50 of CC(C)(C)Nc1ncc(C(N)=O)c(N2CCC(O)CC2)n1 for me?
Reply | < 6.00

Ask | Query (compound): C[C@@H]1CC[C@@H](Nc2nc(NC(C)(C)C)ncc2Br)C[C@H]1O ; field requested: pIC50
Reply | > 7.00

Further cases:
Ask | Look up pIC50 for this compound: C[C@@H]1CC[C@@H](Nc2nc(NC(C)(C)C)ncc2C#N)C[C@H]1O [Compound T001A]
Reply | 6.30 to 7.00

Ask | Please give the measured pIC50 for this compound: C[C@@H]1CC[C@@H](Nc2cc(NC(C)(C)F)ncc2C(N)=O)C[C@H]1O
Reply | < 6.00

Ask | Consider the compound C[C@@H]1CC[C@@H](Nc2nc(NC(C)(C)C)ncc2C(=O)C2CC2)C[C@H]1O and give its measured pIC50.
Reply | 6.30 to 7.00

Ask | What value of measured pIC50 is listed for C[C@@H]1CC[C@@H](Nc2cc(NC3CC(O)C3)ncc2C(N)=O)C[C@H]1O (some centres unmarked) ?
Reply | 6.00 to 6.30

Ask | Which measured pIC50 value corresponds to CC(C)(C)Nc1ncc(C(N)=O)c(Nc2cccc(C(=O)O)c2)n1 ?
Reply | 6.00 to 6.30

Ask | For the compound C[C@@H]1CC[C@@H](Nc2cc(NC(C)(C)C)ncc2C(N)=O)C[C@H]1O , what pIC50 is on record?
Reply | < 6.00

Ask | What value of measured pIC50 is listed for C[C@@H]1CC[C@@H](Nc2nc(NC(C)(C)C)ncc2N)C[C@H]1O ?
Reply | < 6.00
